- System: Staphylococcus sp.
- assay.procedure: in vitro antibacterial evaluation, MIC by broth dilution
- Assay type: cell-based
- condition.set: broth dilution, 18 hours at 35° C.
property.measured: MIC Coagulase Negative Staphylococcus (GC 4548) (µg/mL)
I only need the number, in µg/mL, no unit after it.

Here are 2 compounds together with their reported answers.
CC(c1ccccc1)C1NC(=O)CNC(=O)C(CO)NC(=O)C(C(O)C2CNC(=N)N2C2OC(CO)C(O)C(O)C2O)NC(=O)C(C(O)C2CNC(=N)N2)NC(=O)C(Cc2ccc(OC3OC(CO)C(OC4OC(COCC=Cc5ccc(N(C)C)cc5)C(O)C(O)C4O)C(O)C3O)cc2)NC1=O (centres unmarked)    32
CC(c1ccccc1)C1NC(=O)CNC(=O)C(CO)NC(=O)C(C(O)C2CNC(=N)N2C2OC(CO)C(O)C(O)C2O)NC(=O)C(C(O)C2CNC(=N)N2)NC(=O)C(Cc2ccc(OC3OC(CO)C(OC4OC(COC(=O)C(c5ccccc5)c5ccccc5)C(O)C(O)C4O)C(O)C3O)cc2)NC1=O (centres unmarked) [Example 96c]    0.25

// next item, MIC Coagulase Negative Staphylococcus (GC 4548) requested
Can you look up the measured MIC Coagulase Negative Staphylococcus (GC 4548) of CCC(CC)C1OCC2OC(OC3C(CO)OC(Oc4ccc(CC5NC(=O)C(C(C)c6ccccc6)NC(=O)CNC(=O)C(CO)NC(=O)C(C(O)C6CNC(=N)N6C6OC(CO)C(O)C(O)C6O)NC(=O)C(C(O)C6CNC(=N)N6)NC5=O)cc4)C(O)C3O)C(O)C(O)C2O1 (centres unmarked) for me?
1

====

- System: Staphylococcus sp.
- assay.procedure: in vitro antibacterial evaluation, MIC by broth dilution
- Format: cell-based
- condition.set: broth dilution, 18 hours at 35° C.
- Source text: Methods for in vitro Antibacterial Evaluation (Table 1) […]
property.measured: MIC Staphylococcus aureus (ATCC 29213)

CC(C)CC(=O)OC1C(OC2C(CO)OC(Oc3ccc(CC4NC(=O)C(C(C)c5cccc(F)c5)NC(=O)CNC(=O)C(CO)NC(=O)C(C(O)C5CNC(=N)N5C5OC(CO)C(O)C(O)C5O)NC(=O)C(C(O)C5CNC(=N)N5)NC4=O)cc3)C(O)C2O)OC(CO)C(O)C1O (stereo not shown) [Example 264a]    16 µg/mL
CCCCCNC(=O)OC1C(CO)OC(OC2C(CO)OC(Oc3ccc(CC4NC(=O)C(C(C)c5ccccc5)NC(=O)CNC(=O)C(CO)NC(=O)C(C(O)C5CNC(=N)N5C5OC(CO)C(O)C(O)C5O)NC(=O)C(C(O)C5CNC(=N)N5)NC4=O)cc3)C(O)C2O)C(O)C1O (stereo not shown) [Example 251]    >64 µg/mL
COc1ccc(COCC2OC(OC3C(CO)OC(Oc4ccc(CC5NC(=O)C(C(C)c6ccccc6)NC(=O)CNC(=O)C(CO)NC(=O)C(C(O)C6CNC(=N)N6C6OC(CO)C(O)C(O)C6O)NC(=O)C(C(O)C6CNC(=N)N6)NC5=O)cc4)C(O)C3O)C(O)C(O)C2O)cc1OCc1ccccc1 (stereo not shown) [Example 239]    2 µg/mL

Can you look up the measured MIC Staphylococcus aureus (ATCC 29213) of CC(c1ccccc1)C1NC(=O)CNC(=O)C(CO)NC(=O)C(C(O)C2CNC(=N)N2C2OC(CO)C(O)C(O)C2O)NC(=O)C(C(O)C2CNC(=N)N2)NC(=O)C(Cc2ccc(OC3OC(CO)C(OC4OC(CO)C(O)C(OCc5ccc(OCc6ccccc6)cc5)C4O)C(O)C3O)cc2)NC1=O (stereo not shown) [Example 231c] for me?
1 µg/mL

Then CC(c1ccccc1)C1NC(=O)CNC(=O)C(CO)NC(=O)C(C(O)C2CNC(=N)N2C2OC(CO)C(O)C(O)C2O)NC(=O)C(C(O)C2CNC(=N)N2)NC(=O)C(Cc2ccc(OC3OC(CO)C(OC4OC5COC(C67CC8CC(CC(C8)C6)C7)OC5C(O)C4O)C(O)C3O)cc2)NC1=O (stereo not shown) [Example 127] ?
2 µg/mL

Then CC(c1ccccc1)C1NC(=O)CNC(=O)C(CO)NC(=O)C(C(O)C2CNC(=N)N2C2OC(CO)C(O)C(O)C2O)NC(=O)C(C(O)C2CNC(=N)N2)NC(=O)C(Cc2ccc(OC3OC(CO)C(OC4OC(COC(=O)CCC5CCCC5)C(O)C(O)C4O)C(O)C3O)cc2)NC1=O (stereo not shown) [Example 100c] ?
1 µg/mL

Then COc1ccc(CC2OCC3OC(OC4C(CO)OC(Oc5ccc(CC6NC(=O)C(C(C)c7ccccc7)NC(=O)CNC(=O)C(CO)NC(=O)C(C(O)C7CNC(=N)N7C7OC(CO)C(O)C(O)C7O)NC(=O)C(C(O)C7CNC(=N)N7)NC6=O)cc5)C(O)C4O)C(O)C(O)C3O2)cc1 (stereo not shown) [Example 103] ?
2 µg/mL

====

# MIC Enterococcus faecalis (GC 3059) per entry
- Test system: Enterococcus sp.
- assay.procedure: in vitro antibacterial evaluation, MIC by broth dilution
- Format: cell-based
- condition.set: broth dilution, 18 hours at 35° C.
I only need the number, in µg/mL, no unit after it.

CC(c1ccccc1)C1NC(=O)CNC(=O)C(CO)NC(=O)C(C(O)C2CNC(=N)N2C2OC(CO)C(O)C(O)C2O)NC(=O)C(C(O)C2CNC(=N)N2)NC(=O)C(Cc2ccc(OC3OC(CO)C(OC4OC(CO)C(OCC=C(c5ccccc5)c5ccccc5)C(O)C4O)C(O)C3O)cc2)NC1=O (stereo not shown) [Example 241a]    2

Can you look up the measured MIC Enterococcus faecalis (GC 3059) of COc1ccc2cc(C3OCC4OC(OC5C(CO)OC(Oc6ccc(CC7NC(=O)C(C(C)c8ccccc8)NC(=O)CNC(=O)C(CO)NC(=O)C(CC8CNC(=N)N8C8OC(CO)C(O)C(O)C8O)NC(=O)C(CC8CNC(=N)N8)NC7=O)cc6)C(O)C5O)C(O)C(O)C4O3)ccc2c1 (stereo not shown) for me?
32

====

- Test system: Staphylococcus sp.
- assay.procedure: in vitro antibacterial evaluation, MIC by broth dilution
- Type: cell-based
- condition.set: strain GC 4548; broth dilution, 18 hours at 35° C.
# MIC Coagulase Negative Staphylococcus (GC 4548) per entry
I only need the number, in µg/mL, no unit after it.

Here are 3 compounds together with their reported answers.
CC(c1ccccc1)C1NC(=O)CNC(=O)C(CO)NC(=O)C(C(O)C2CNC(=N)N2C2OC(CO)C(O)C(O)C2O)NC(=O)C(C(O)C2CNC(=N)N2)NC(=O)C(Cc2ccc3oc(=O)[nH]c3c2)NC1=O (stereo not shown)    128
CC(c1ccccc1)C1NC(=O)CNC(=O)C(CO)NC(=O)C(C(O)C2CNC(=N)N2C2OC(CO)C(O)C(O)C2O)NC(=O)C(C(O)C2CNC(=N)N2)NC(=O)C(Cc2ccc(OC3OC(CO)C(OC4OC5COC6(CC7CCC6(C)C7(C)C)OC5C(O)C4O)C(O)C3O)cc2)NC1=O (stereo not shown)    1
CC(c1ccc(Cl)cc1)C1NC(=O)CNC(=O)C(CO)NC(=O)C(C(O)C2CNC(=N)N2C2OC(CO)C(O)C(O)C2O)NC(=O)C(C(O)C2CNC(=N)N2)NC(=O)C(Cc2ccc(OC3OC(CO)C(OC4OC5COC(c6ccccc6)OC5C(O)C4O)C(O)C3O)cc2)NC1=O (stereo not shown)    2

// next item, MIC Coagulase Negative Staphylococcus (GC 4548) requested
Can you look up the measured MIC Coagulase Negative Staphylococcus (GC 4548) of CC(c1ccccc1)C1NC(=O)CNC(=O)C(CO)NC(=O)C(C(O)C2CNC(=N)N2C2OC(CO)C(O)C(O)C2O)NC(=O)C(C(O)C2CNC(=N)N2)NC(=O)C(Cc2ccc(OC3OC(CO)C(OC4OC5COC(c6ccc(-c7ccc(Cl)cc7)cc6)OC5C(O)C4O)C(O)C3O)cc2)NC1=O (stereo not shown) for me?
0.5

====

- Tested on: Staphylococcus sp.
- assay.procedure: in vitro antibacterial evaluation, MIC by broth dilution
- Assay type: cell-based
- condition.set: broth dilution, 18 hours at 35° C.
property.measured: MIC Staphylococcus aureus (GC 3051) (µg/mL)
I only need the number, in µg/mL, no unit after it.

CC(c1ccccc1)C1NC(=O)CNC(=O)C(CO)NC(=O)C(C(O)C2CNC(=N)N2C2OC(CO)C(O)C(O)C2O)NC(=O)C(C(O)C2CNC(=N)N2)NC(=O)C(Cc2ccc(OC3OC(CO)C(OC4OC(CO)C(O)C5OC(CC67CC8CC(CC(C8)C6)C7)OC45)C(O)C3O)cc2)NC1=O (centres unmarked)    2

Can you look up the measured MIC Staphylococcus aureus (GC 3051) of COc1ccc(COCC2OC(OC3C(CO)OC(Oc4ccc(CC5NC(=O)C(C(C)c6ccccc6)NC(=O)CNC(=O)C(CO)NC(=O)C(C(O)C6CNC(=N)N6C6OC(CO)C(O)C(O)C6O)NC(=O)C(C(O)C6CNC(=N)N6)NC5=O)cc4)C(O)C3O)C(O)C(O)C2O)cc1F (centres unmarked) for me?
2

Then COc1ccc(COCC2OC(OC3C(CO)OC(Oc4ccc(CC5NC(=O)C(C(C)c6ccccc6)NC(=O)CNC(=O)C(CO)NC(=O)C(C(O)C6CNC(=N)N6C6OC(CO)C(O)C(O)C6O)NC(=O)C(C(O)C6CNC(=N)N6)NC5=O)cc4)C(O)C3O)C(O)C(O)C2O)cc1 (centres unmarked) ?
4

Then CC(c1ccccc1)C1NC(=O)CNC(=O)C(CO)NC(=O)C(C(O)C2CNC(=N)N2C2OC(CO)C(O)C(O)C2O)NC(=O)C(C(O)C2CNC(=N)N2)NC(=O)C(Cc2ccc(OC3OC(CO)C(OC4OC(CO)C(O)C5OC(c6ccccc6)OC45)C(O)C3O)cc2)NC1=O (single isomer, unassigned) [Example 104a] ?
0.5
